Target or test system: HLA-A*02:01 (Homo sapiens, UniProt P04439, D140Y/D185E/D98H/E176V/E277Q/G131W/G231S/I119V/I121R/I166T/I218V/L300P/L318F/N151K/N90K/P208A/P217A/Q86G/Q94H/R138H/R169H/T345S)
Method summary: MHC binding assay: UV-ligand exchange with beta2m ELISA (peptide exchange yield)
Test parameters: binding to HLA-A*02:01
Excerpt: Candidate peptides for T cell based therapies according to the present invention were further tested for their MHC binding capacity (affinity). The individual peptide-MHC complexes were produced by UV-ligand exchange, where a UV-sensitive peptide is cleaved upon UV-irradiation, and exchanged with the peptide of interest as analyzed. Only peptide candidates that can effectively bind and stabilize the peptide-receptive MHC molecules prevent dissociation of the MHC complexes. […]
Measured attribute: Peptide exchange (MHC class I binding score, peptide exchange yield)

# Substance, Reported
rows = [
    ("263 (LLVSNLDFGV; listed as Homo sapiens) [compound 263]", "“+++” (≥50 = +++)"),
    ("552 (GLLDLPFRVGV; listed as Homo sapiens) [compound 552]", "“++++” (≥75% = ++++)"),
    ("177 (YLLPEEYTSTL; listed as Homo sapiens) [compound 177]", "“++++” (≥75% = ++++)"),
    ("443 (GLWEIENNPTV; listed as Homo sapiens) [compound 443]", "“+++” (≥50 = +++)"),
]

Look up Peptide exchange (MHC class I binding score, peptide exchange yield) for this substance: 477 (ALLPASGQIAL; listed as Homo sapiens) [compound 477] “+++” (≥50 = +++)

Look up Peptide exchange (MHC class I binding score, peptide exchange yield) for this substance: 515 (LLQELVLFL; listed as Homo sapiens) [compound 515] “+++” (≥50 = +++)

Look up Peptide exchange (MHC class I binding score, peptide exchange yield) for this substance: 487 (LLINSVFHV; listed as Homo sapiens) [compound 487] “+++” (≥50 = +++)

Look up Peptide exchange (MHC class I binding score, peptide exchange yield) for this substance: 180 (FQIDPHSGLVTV; listed as Homo sapiens) [compound 180] “++” (≥20% = ++)

Look up Peptide exchange (MHC class I binding score, peptide exchange yield) for this substance: 149 (NLLELFVQL; listed as Homo sapiens) [compound 149] “+++” (≥50 = +++)

Look up Peptide exchange (MHC class I binding score, peptide exchange yield) for this substance: 20 (RMIEYFIDV; listed as Homo sapiens) [compound 20] “+++” (≥50 = +++)

Look up Peptide exchange (MHC class I binding score, peptide exchange yield) for this substance: 172 (VLYSYTIITV; listed as Homo sapiens) [compound 172] “++” (≥20% = ++)

Look up Peptide exchange (MHC class I binding score, peptide exchange yield) for this substance: 317 (SLAALVVHV; listed as Homo sapiens) [compound 317] “+++” (≥50 = +++)

Look up Peptide exchange (MHC class I binding score, peptide exchange yield) for this substance: 429 (GLVNDLARV; listed as Homo sapiens) [compound 429] “++” (≥20% = ++)
